System: human HL60 cells
Assay: SWATH-MS proteomics, differential protein representation, akirin2 KO vs WT HL60 cells
Assay type: cell-based
Details: KO vs WT HL60 cells; sheet "Under-represented in KO"
ATTRIBUTE_MEASURED: Log (Fold Change)
Please state the value as a number alone, without comment.

// below: answered molecules
sp¦Q8WU39¦MZB1_HUMAN (protein, UniProt Q8WU39 23-189, looked up) Marginal zone B- and …: DRAPLTATAPQLDDEEMYSAHMPAHLRCDACRAVAYQMWQNLAKAETKLHTSNSGGRRELSELVYTDVLDRSCSRNWQDYGVREVDQVKRLTGPGLSEGPEPSISVMVTGGPWPTRLSRTCLHYLGEFGEDQIYEAHQQGRGALEALLCGGPQGACSEKVSATREEL
-0.279
sp¦Q9BTT0¦AN32E_HUMAN (protein, UniProt Q9BTT0 1-268, looked up) Acidic leucine-rich nuclear …: MEMKKKINLELRNRSPEEVTELVLDNCLCVNGEIEGLNDTFKELEFLSMANVELSSLARLPSLNKLRKLELSDNIISGGLEVLAEKCPNLTYLNLSGNKIKDLSTVEALQNLKNLKSLDLFNCEITNLEDYRESIFELLQQITYLDGFDQEDNEAPDSEEEDDEDGDEDDEEEEENEAGPPEGYEEEEEEEEEEDEDEDEDEDEAGSELGEGEEEVGLSYLMKEEIQDEEDDDDYVEEGEEEEEEEEGGLRGEKRKRDAEDDGEEEDD
-0.2769

Lab note: measured Log (Fold Change) of sp¦P61020¦RAB5B_HUMAN (protein, UniProt P61020 2-215, looked up) Ras-related protein Rab-5B: TSRSTARPNGQPQASKICQFKLVLLGESAVGKSSLVLRFVKGQFHEYQESTIGAAFLTQSVCLDDTTVKFEIWDTAGQERYHSLAPMYYRGAQAAIVVYDITNQETFARAKTWVKELQRQASPSIVIALAGNKADLANKRMVEYEEAQAYADDNSLLFMETSAKTAMNVNDLFLAIAKKLPKSEPQNLGGAAGRSRGVDLHEQSQQNKSQCCSN was -0.3455
